- Test system: HCC1599
- experiment: normalised response (% of control), CellTiter-Glo; higher = more viable cells (100 = DMSO, 0 = benzethonium chloride kill control)
- details: incubation time: 72 h
// normalised response lookup, one value per entry
Supply the numeric figure in %, leaving out any unit text.

These solved cases illustrate the format of a correct answer.
COc1cc(F)c(F)c(Nc2ccc(I)cc2F)c1NS(=O)(=O)C1(C[C@H](O)CO)CC1 [Refametinib] (1 nM) :: 99.5
CC(C)(C)c1cnc(CSc2cnc(NC(=O)C3CCNCC3)s2)o1 [SNS-032] (10 nM) :: 107
C[C@]1(O)C[C@@H](c2nc(-c3ccc4ccc(-c5ccccc5)nc4c3)c3c(N)nccn32)C1 [Linsitinib] (1 nM) :: 106
C[C@]12CC[C@@H]3c4ccc(OC(=O)N(CCCl)CCCl)cc4CC[C@H]3[C@@H]1CC[C@@H]2O [Estramustine] (1000 nM) :: 111
Cc1ccc([N+](=O)[O-])cc1S(=O)(=O)N(C)/N=C/c1cnc2ccc(Br)cn12 [PIK-75] (10 nM) :: 96.9
COc1cc2c(cc1O)CC[C@@H]1[C@@H]2CC[C@]2(C)[C@@H](O)CC[C@@H]12 [2-methoxyestradiol] (10 nM) :: 92.7
Nc1nc2[nH]cnc2c(=S)[nH]1 [Thioguanine] (1000 nM) :: 82

We now examine a further compound.
Asked: I would be grateful if you could share the reported normalised response for Oc1ncnc2[nH]ncc12 [Allopurinol] (10 nM) .
Given back: 104

---

- Tested on: MDA-MB-468
- experiment: normalised response (% of control), CellTiter-Glo; higher = more viable cells (100 = DMSO, 0 = benzethonium chloride kill control)
- details: incubation time: 72 h
measured attribute: normalised response
Record the result as number plus unit.

Asked: Please give the measured normalised response for this compound: COc1cc2c(cc1O)CC[C@@H]1[C@@H]2CC[C@]2(C)[C@@H](O)CC[C@@H]12 [2-methoxyestradiol] (100 nM)
Given back: 103%

Asked: # query: normalised response of entry CC1(C)CNc2cc(NC(=O)c3cccnc3NCc3ccncc3)ccc21 [Motesanib] (100 nM)
Given back: 91.8%

Asked: For Nc1nc2[nH]cnc2c(=S)[nH]1 [Thioguanine] (100 nM) , what is its reported normalised response?
Given back: 98.8%

Asked: Param item = Oc1ncnc2[nH]ncc12 [Allopurinol] (100 nM) ; retrieve measured normalised response.
Given back: 107%

Asked: Quick check: normalised response of C[C@]12CC[C@@H]3c4ccc(OC(=O)N(CCCl)CCCl)cc4CC[C@H]3[C@@H]1CC[C@@H]2O [Estramustine] (100 nM) ?
Given back: 95.2%

---

- Test system: CAL-51
- experiment: normalised response (% of control), CellTiter-Glo; higher = more viable cells (100 = DMSO, 0 = benzethonium chloride kill control)
- details: incubation time: 72 h
# normalised response >= 90% gives 1, anything below gives -1

Here are 5 molecules together with their reported answers.
COc1cc(F)c(F)c(Nc2ccc(I)cc2F)c1NS(=O)(=O)C1(C[C@H](O)CO)CC1 [Refametinib] (10 nM) :: 1
C[C@]12CC[C@@H]3c4ccc(OC(=O)N(CCCl)CCCl)cc4CC[C@H]3[C@@H]1CC[C@@H]2O [Estramustine] (1 nM) :: 1
Cc1sc2c(c1C)C(c1ccc(Cl)cc1)=N[C@@H](CC(=O)OC(C)(C)C)c1nnc(C)n1-2 [(+)JQ1] (1 nM) :: -1
Nc1nc2[nH]cnc2c(=S)[nH]1 [Thioguanine] (10 nM) :: -1
CC[C@@H]1C(=O)OC[C@@H]1Cc1cncn1C [Pilocarpine] (4 nM) :: 1

Asked: Please tell me: is the molecule CC[C@@H]1C(=O)OC[C@@H]1Cc1cncn1C [Pilocarpine] (40 nM) at or over 90% in terms of normalised response?
Given back: 1

Asked: I'd appreciate it if you could say whether CC1(C)CNc2cc(NC(=O)c3cccnc3NCc3ccncc3)ccc21 [Motesanib] (10 nM) has normalised response at least equal to 90%.
Given back: 1

Asked: Could you verify whether the entry O=NN(CCCl)C(=O)NCCCl [Carmustine] (1 nM) shows normalised response of no less than 90%?
Given back: -1

---

- Tested on: MDA-MB-453
- experiment: normalised viability (% of control), CellTiter-Blue; higher = more viable cells (about 100 = DMSO control)
- details: incubation time: 72 h
measured attribute: normalised viability (%)
Reply numerically in %, unit not repeated.

Study these solved cases before continuing.
C[C@]1(O)C[C@@H](c2nc(-c3ccc4ccc(-c5ccccc5)nc4c3)c3c(N)nccn32)C1 [OSI-906] (10000 nM) :: 65.9
Nc1ncn([C@@H]2O[C@H](CO)[C@@H](O)[C@H]2O)c(=O)n1 [Azacitidine] (10000 nM) :: 82
Cc1sc2c(c1C)C(c1ccc(Cl)cc1)=N[C@@H](CC(=O)OC(C)(C)C)c1nnc(C)n1-2 [(+)JQ1] (10000 nM) :: 18.3

Turning now to a further compound:
Asked: # get_value(readout='normalised viability', item= CC[C@@H]1C(=O)OC[C@@H]1Cc1cncn1C [Pilocarpine] (40000 nM) )
Given back: 43.7

---

Below, each entry is listed with its recorded normalised viability.
- Test system: HCC1599
- experiment: normalised viability (% of control), CellTiter-Blue; higher = more viable cells (about 100 = DMSO control)
- details: 10000 nM; incubation time: 72 h
Just the number please, in %, no unit attached.

Worked cases, normalised viability given:
Cn1cc(C2=Nc3cc(NC(=O)C(N)C4CCCCC4)cc4c3C2=CNNC4=O)cn1 (stereo unspecified) :: 42
CC1(C)CNc2cc(NC(=O)c3cccnc3NCc3ccncc3)ccc21 [Motesanib] :: 95.9
CC(C)(C)c1cnc(CSc2cnc(NC(=O)C3CCNCC3)s2)o1 [SNS-032] :: 22.4

Asked: Bench note: what normalised viability did O=C1CN2Cc3c(ccc(Cl)c3Cl)N=C2N1 [Anagrelide] show?
Given back: 89.3

Asked: What value of measured normalised viability is listed for COc1cc(F)c(F)c(Nc2ccc(I)cc2F)c1NS(=O)(=O)C1(C[C@H](O)CO)CC1 [RDEA119] ?
Given back: 82

Asked: Given Cc1sc2c(c1C)C(c1ccc(Cl)cc1)=N[C@@H](CC(=O)OC(C)(C)C)c1nnc(C)n1-2 [(+)JQ1] , state its recorded normalised viability.
Given back: 54.6

---

- Tested on: MDA-MB-436
- experiment: drug sensitivity score (DSS), CellTiter-Glo (DSS (AUC-based score)); higher = stronger drug effect (viability inhibition or cytotoxicity); extreme values may be limits of the assay
- details: incubation time: 72 h
measured attribute: drug sensitivity score
Number only, no unit.

Example cases with answers are listed next.
Nc1ncn([C@@H]2O[C@H](CO)[C@@H](O)[C@H]2O)c(=O)n1 :: 4.78
CC1(C)CCC(CN2CCN(c3ccc(C(=O)NS(=O)(=O)c4ccc(NCC5CCOCC5)c([N+](=O)[O-])c4)c(Oc4cnc5[nH]ccc5c4)c3)CC2)=C(c2ccc(Cl)cc2)C1 :: 0
CC(=O)O[C@@]12CO[C@@H]1C[C@H](O)[C@@]1(C)C(=O)[C@H](O)C3=C(C)[C@@H](OC(=O)[C@H](O)[C@@H](NC(=O)OC(C)(C)C)c4ccccc4)C[C@@](O)([C@@H](OC(=O)c4ccccc4)[C@H]21)C3(C)C :: 22
Nc1nc2[nH]cnc2c(=S)[nH]1 :: 4.37

Next item in the queue.
Asked: Would you kindly share the measured drug sensitivity score for `COc1cc(F)c(F)c(Nc2ccc(I)cc2F)c1NS(=O)(=O)C1(C[C@H](O)CO)CC1` ?
Given back: 4.19

---

- Test system: MFM-223
- experiment: normalised response (% of control), CellTiter-Glo; higher = more viable cells (100 = DMSO, 0 = benzethonium chloride kill control)
- details: incubation time: 72 h
The reader will find reported normalised response values listed item by item below.

Observe how each entry below is paired with its result.
CC1(C)CCC(CN2CCN(c3ccc(C(=O)NS(=O)(=O)c4ccc(NCC5CCOCC5)c([N+](=O)[O-])c4)c(Oc4cnc5[nH]ccc5c4)c3)CC2)=C(c2ccc(Cl)cc2)C1 [ABT-199] (10000 nM) :: 91%
Cc1sc2c(c1C)C(c1ccc(Cl)cc1)=N[C@@H](CC(=O)OC(C)(C)C)c1nnc(C)n1-2 [(+)JQ1] (10000 nM) :: 45.1%
C[C@]1(O)C[C@@H](c2nc(-c3ccc4ccc(-c5ccccc5)nc4c3)c3c(N)nccn32)C1 [Linsitinib] (10000 nM) :: 83.1%
CC(=O)N(O)CCCCCNC(=O)CCC(=O)N(O)CCCCCNC(=O)CCC(=O)N(O)CCCCCN [Deferoxamine] (10000 nM) :: 70.9%

# input for lookup
Asked: Provide value of normalised response for this record tested with MFM-223: Cc1ccc([N+](=O)[O-])cc1S(=O)(=O)N(C)/N=C/c1cnc2ccc(Br)cn12 [PIK-75] (10000 nM)
Given back: 3.73%
